pIC50 reference
# target: ROCK2 (Homo sapiens)
# assay text: ROCK2 kinase inhibition assay (LABCHIP 3000 Reader, FITC peptide substrate)
pIC50: −log10 of the molar value. Where a name gives a salt, the structure may show the parent alone.

compound	pIC50
NC(=O)c1cccnc1O[C@H]1CC2(C[C@H](NC(=O)c3cnn4c(C5CC5)c(OC5COC5)ccc34)C2)C1 (some centres unmarked)	7.30 to 8.30
[H][C@]1(Oc2ncccc2C(N)=O)C[C@@]2(C[C@H](NC(=O)c3nn(C(C)(C)C#N)c4cc(-c5cnn(C)c5)ccc34)C2)C1 (some centres unmarked) [Example 406, TFA]	> 8.30
CN(C)CCNC(=O)c1cccc(-c2ccc(C(N)=O)c(OC3CC4(CC(NC(=O)c5cnn6cc(OCC(C)(C)O)ccc56)C4)C3)c2)c1 (centres unmarked)	7.30 to 8.30
Cn1cc(-c2ccc3c(C(=O)N[C@H]4CC5(C4)C[C@H](Oc4ncccc4C(N)=O)C5)cnn3c2C2CC2)cn1 (some centres unmarked)	> 8.30
CC(C)(O)COc1ccc2c(C(=O)NC3CC4(C3)CC(Oc3cc(-c5cccc(S(=O)(=O)NCCO)c5)ccc3C(N)=O)C4)cnn2c1 (centres unmarked)	> 8.30
[H][C@]1(Oc2ncccc2C(N)=O)C[C@@]2(C[C@H](NC(=O)c3cc(C#N)cc(-c4nc5c(s4)CNCC5)c3)C2)C1 (some centres unmarked)	7.30 to 8.30
Cn1nc(-c2ccccc2)cc1C(=O)N[C@H]1CC2(C1)C[C@H](Oc1ncccc1C(N)=O)C2 (some centres unmarked)	5.60 to 6.60
CC(C)n1cc(-c2ccc3c(C(=O)N[C@H]4CC5(C4)C[C@H](Oc4ncccc4C(N)=O)C5)nnn3c2)c(C(F)(F)F)n1 (some centres unmarked)	7.30 to 8.30
Cc1nc(-c2ccccn2)sc1C(=O)N[C@H]1CC2(C1)C[C@H](Oc1ncccc1C(N)=O)C2 (some centres unmarked)	5.60 to 6.60
NC(=O)c1ccccc1O[C@H]1CC2(C[C@H](NC(=O)c3cnc4cc(N5CCC(F)(F)C5)ccn34)C2)C1 (some centres unmarked)	> 8.30
[H][C@]1(Oc2ncccc2C(N)=O)C[C@@]2(C[C@H](NC(=O)c3nn(C(C)(C)C#N)c4cc(OCCC(F)(F)F)ccc34)C2)C1 (some centres unmarked) [Example 411, TFA]	7.30 to 8.30
CC(C)(C(N)=O)n1nc(C(=O)N[C@H]2CC3(C2)C[C@H](Oc2ncccc2C(N)=O)C3)c2ccc(-c3cnn(C(F)F)c3)cc21 (some centres unmarked) [Example 409, TFA]	> 8.30
CC(C)(O)COc1ccc2c(C(=O)NC3CC4(C3)CC(Oc3cc(C5CNC5)ccc3C(N)=O)C4)cnn2c1 (centres unmarked)	6.60 to 7.30
N#Cc1cc(F)cc(C(=O)N[C@H]2CC3(C2)C[C@H](Oc2ncccc2C(N)=O)C3)c1 (some centres unmarked)	6.60 to 7.30
COCCNC(=O)c1cccc(-c2ccc(C(N)=O)c(OC3CC4(CC(NC(=O)c5cnn6cc(OCC(C)(C)O)ccc56)C4)C3)c2)c1 (centres unmarked)	7.30 to 8.30
CC(C)(O)Cn1nc(C(=O)N[C@H]2CC3(C2)C[C@H](Oc2ncccc2C(N)=O)C3)c2ccccc21 (some centres unmarked)	7.30 to 8.30
NC(=O)c1cccnc1O[C@H]1CC2(C[C@H](NC(=O)c3cnn4cc(OC5CCS(=O)(=O)CC5)ccc34)C2)C1 (some centres unmarked)	7.30 to 8.30
Cc1ncc(-c2ccc3c(C(=O)NC4CC5(C4)CC(Oc4ncccc4C(N)=O)C5)nc(C(F)F)n3c2)s1 (centres unmarked)	> 8.30
CC(C)(O)COc1ccc2c(C(=O)NC3CC4(C3)CC(Oc3cc(-c5cccc(F)c5)ccc3C(N)=O)C4)cnn2c1 (centres unmarked)	7.30 to 8.30
CC(F)(F)COc1ccc2c(C(=O)N[C@H]3CC4(C3)C[C@H](Oc3ncccc3C(N)=O)C4)cnn2c1C1CC1 (some centres unmarked)	> 8.30

---

# target: ROCK2 (Homo sapiens, UniProt O75116)
# Sequence (O75116 whole entry, species assumed): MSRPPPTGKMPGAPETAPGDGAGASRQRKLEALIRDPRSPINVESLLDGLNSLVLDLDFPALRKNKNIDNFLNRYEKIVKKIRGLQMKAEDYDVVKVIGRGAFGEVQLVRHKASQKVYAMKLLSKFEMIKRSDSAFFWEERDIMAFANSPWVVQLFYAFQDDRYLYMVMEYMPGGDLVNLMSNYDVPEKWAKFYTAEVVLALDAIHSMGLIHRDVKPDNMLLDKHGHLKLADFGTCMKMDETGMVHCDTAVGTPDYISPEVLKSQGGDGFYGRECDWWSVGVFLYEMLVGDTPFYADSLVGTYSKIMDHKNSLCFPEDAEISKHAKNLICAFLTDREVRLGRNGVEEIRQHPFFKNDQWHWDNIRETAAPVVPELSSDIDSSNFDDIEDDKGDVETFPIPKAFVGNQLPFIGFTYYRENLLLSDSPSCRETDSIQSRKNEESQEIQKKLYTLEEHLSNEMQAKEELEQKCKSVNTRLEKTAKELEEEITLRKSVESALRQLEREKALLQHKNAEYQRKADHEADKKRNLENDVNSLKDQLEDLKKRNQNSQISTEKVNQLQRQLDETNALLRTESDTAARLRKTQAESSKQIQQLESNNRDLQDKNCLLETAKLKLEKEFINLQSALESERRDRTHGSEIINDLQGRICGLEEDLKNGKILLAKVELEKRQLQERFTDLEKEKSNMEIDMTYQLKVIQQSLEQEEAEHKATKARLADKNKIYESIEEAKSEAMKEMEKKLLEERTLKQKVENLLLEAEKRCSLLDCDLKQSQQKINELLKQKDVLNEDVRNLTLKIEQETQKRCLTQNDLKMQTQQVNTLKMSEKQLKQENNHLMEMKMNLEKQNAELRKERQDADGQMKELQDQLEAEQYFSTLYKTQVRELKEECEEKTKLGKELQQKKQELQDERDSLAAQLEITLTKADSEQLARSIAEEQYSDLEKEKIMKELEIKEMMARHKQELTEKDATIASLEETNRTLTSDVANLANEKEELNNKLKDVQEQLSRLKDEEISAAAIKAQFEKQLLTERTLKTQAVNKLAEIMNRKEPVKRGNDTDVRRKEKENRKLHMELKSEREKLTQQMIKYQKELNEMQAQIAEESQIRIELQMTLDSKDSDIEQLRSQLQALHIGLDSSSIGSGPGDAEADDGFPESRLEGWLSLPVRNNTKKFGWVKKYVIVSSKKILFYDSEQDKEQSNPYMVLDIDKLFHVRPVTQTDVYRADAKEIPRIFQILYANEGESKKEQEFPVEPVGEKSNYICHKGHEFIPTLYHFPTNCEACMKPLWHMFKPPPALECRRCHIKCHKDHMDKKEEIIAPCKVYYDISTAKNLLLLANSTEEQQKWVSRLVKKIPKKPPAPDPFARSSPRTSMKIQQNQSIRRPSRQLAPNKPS
# assay text: ROCK2 kinase inhibition assay (LABCHIP 3000 Reader, FITC peptide substrate)
measurement kind: IC50

In [3]: df
Out[3]:
                                    molecule                                target    meas_value
 0  Cc1ccc(C(N)=O)c(OC2CC3(CC(NC(=O)c4cnn5c(C6CC6)c(OCC(C)(C)O)ccc45)C3)C2)c1 (stereo not drawn)  ROCK2 (Homo sapiens, UniProt O75116)        < 5 nM
 1  NC(=O)c1ccccc1O[C@H]1CC2(C[C@H](NC(=O)c3cnn4cc(N5CCC(F)(F)C5)ccc34)C2)C1 (stereo partly drawn)  ROCK2 (Homo sapiens, UniProt O75116)        < 5 nM
 2  CC(C)(O)COc1ccc2c(C(=O)NC3CC4(C3)CC(Oc3cc(Cl)ccc3C(N)=O)C4)cnn2c1 (stereo not drawn)  ROCK2 (Homo sapiens, UniProt O75116)    5 to 50 nM
 3  Cn1nc(C(=O)N[C@H]2CC3(C2)C[C@H](Oc2ncccc2C(N)=O)C3)cc1OCC(F)F (stereo partly drawn)  ROCK2 (Homo sapiens, UniProt O75116)  50 to 250 nM
 4  CC(C)(O)COc1ccc2c(C(=O)NC3CC4(C3)CC(Oc3cc(-c5ccccn5)ccc3C(N)=O)C4)cnn2c1 (stereo not drawn)  ROCK2 (Homo sapiens, UniProt O75116)    5 to 50 nM
 5  Cc1ccn2c(C(=O)N[C@H]3CC4(C3)C[C@H](Oc3ncccc3C(N)=O)C4)cnc2c1 (stereo partly drawn)  ROCK2 (Homo sapiens, UniProt O75116)    5 to 50 nM
 6  [H][C@]1(Oc2ncccc2C(N)=O)C[C@@]2(C[C@H](NC(=O)c3cnc4cc(N5CC(N)C5)ccn34)C2)C1 (stereo partly drawn)  ROCK2 (Homo sapiens, UniProt O75116)  50 to 250 nM
 7  CC(C)(O)COc1ccc2c(C(=O)NC3CC4(C3)CC(Oc3cc(-c5cc(C#N)cc([N+](=O)[O-])c5)ccc3C(N)=O)C4)cnn2c1 (stereo not drawn)  ROCK2 (Homo sapiens, UniProt O75116)    5 to 50 nM
 8  CC(C)(O)Cn1nc(C(=O)N[C@H]2CC3(C2)C[C@H](Oc2ncccc2C(N)=O)C3)c2cc(Br)ccc21 (stereo partly drawn)  ROCK2 (Homo sapiens, UniProt O75116)    5 to 50 nM
 9  NC(=O)c1cccnc1O[C@H]1CC2(C[C@H](NC(=O)c3cnc4cc(C(F)(F)F)ccn34)C2)C1 (stereo partly drawn)  ROCK2 (Homo sapiens, UniProt O75116)  50 to 250 nM
10  CN(C)CCCc1ccc(C(N)=O)c(OC2CC3(CC(NC(=O)c4cnn5c(C6CC6)c(OCC(C)(C)O)ccc45)C3)C2)c1 (stereo not drawn)  ROCK2 (Homo sapiens, UniProt O75116)    5 to 50 nM
11  CCOC(=O)Cc1cccc(-c2ccc(C(N)=O)c(OC3CC4(CC(NC(=O)c5cnn6cc(OCC(C)(C)O)ccc56)C4)C3)c2)c1 (stereo not drawn)  ROCK2 (Homo sapiens, UniProt O75116)    5 to 50 nM

---

IC50 reference
# target: UniProtKB O75116
# assay text: ROCK2 kinase inhibition assay (LABCHIP 3000 Reader, FITC peptide substrate)
measurement kind: IC50

molecule	meas value
Cc1nc(C(=O)NC2CC3(C2)CC(Oc2ncccc2C(N)=O)C3)c(C)n1-c1ccccc1 (centres unmarked) [Example 392]	0.05 to 0.25 µM
CC(C)(O)COc1ccc2c(C(=O)N[C@H]3CC4(C3)C[C@H](Oc3cc(Br)ccc3C(N)=O)C4)cnn2c1 (some centres unmarked) [Example 302]	< 0.005 µM
CS(=O)(=O)c1cccc(C(=O)N[C@H]2CC3(C2)C[C@H](Oc2ncccc2C(N)=O)C3)c1 (some centres unmarked) [Example 109]	0.05 to 0.25 µM
[H][C@]1(Oc2ncccc2C(N)=O)C[C@@]2(C[C@H](NC(=O)c3nn(C(F)F)c4cc(N5CCOCC5)ccc34)C2)C1 (some centres unmarked) [Example 372]	< 0.005 µM
COc1ccc(C(N)=O)c(O[C@H]2CC3(C[C@H](NC(=O)c4cnn5c(CCC(F)(F)F)c(OCC(C)(C)O)ccc45)C3)C2)n1 (some centres unmarked) [Example 168]	< 0.005 µM

---

pIC50 reference
# target: ROCK2 (Homo sapiens, UniProt O75116)
# assay text: ROCK2 kinase inhibition assay (LABCHIP 3000 Reader, FITC peptide substrate);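 further: rho kinase reaction read by separating phosphorylated from unphosphorylated peptide on chip, with inhibition of kinase activity computed per concentration across a dose-response series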
pIC50: −log10 of the molar value. Structures can show the parent of a compound that is named as a salt.
measurement kind: pIC50

In [3]: df
Out[3]:
                                    compound  measurement_kind    meas_value
 0  [H][C@]1(Oc2ncccc2C(N)=O)C[C@@]2(C[C@H](NC(=O)c3cccc(-c4cnn(C)c4)c3)C2)C1 (stereo partly shown)             pIC50  6.60 to 7.30
 1  COc1cccc(-c2ccc(C(N)=O)c(OC3CC4(CC(NC(=O)c5cnn6cc(OCC(C)(C)O)ccc56)C4)C3)c2)n1 (stereo not shown)             pIC50  7.30 to 8.30
 2  Cn1nccc1-c1cc(C#N)cc(C(=O)N[C@H]2CC3(C2)C[C@H](Oc2ncccc2C(N)=O)C3)c1 (stereo partly shown)             pIC50  7.30 to 8.30
 3  CC(C)(O)COc1ccc2c(C(=O)NC3CC4(C3)CC(Oc3cc(-c5cnn(CC(C)(C)O)c5)ccc3C(N)=O)C4)cnn2c1 (stereo not shown)             pIC50  7.30 to 8.30
 4  NC(=O)c1cccnc1O[C@H]1CC2(C[C@H](NC(=O)c3cnc4c(C(F)(F)F)cccn34)C2)C1 (stereo partly shown)             pIC50  6.60 to 7.30
 5  CC(O)c1ccn2c(C(=O)N[C@H]3CC4(C3)C[C@H](Oc3ncccc3C(N)=O)C4)cnc2c1 (stereo partly shown)             pIC50  6.60 to 7.30
 6  [H][C@]1(Oc2cc(-c3cnn(C)c3)ccc2C(N)=O)C[C@@]2(C[C@H](NC(=O)c3cnn4cc(OCC(C)(C)O)ccc34)C2)C1 (single isomer, unassigned)             pIC50  7.30 to 8.30
 7  Cn1nc(C(=O)NC2CC3(C2)CC(Oc2ncccc2C(N)=O)C3)cc1-c1ccccc1 (stereo not shown)             pIC50  7.30 to 8.30
 8  N#Cc1cccc(-c2ncc(C(=O)NC3CC4(C3)CC(Oc3ncccc3C(N)=O)C4)s2)c1 (stereo not shown) [Example 420, TFA]             pIC50  7.30 to 8.30
 9  Cn1cc(-c2ccc3c(C(=O)NC4CC5(C4)CC(Oc4ncccc4C(N)=O)C5)nc(C(F)F)n3c2)c(C(F)(F)F)n1 (stereo not shown)             pIC50  7.30 to 8.30
10  [H][C@]1(Oc2ccncc2C(N)=O)C[C@@]2(C[C@H](NC(=O)c3cnn4cc(OCC(C)(C)O)ccc34)C2)C1 (stereo partly shown)             pIC50  5.60 to 6.60
11  NC(=O)c1cccnc1O[C@H]1CC2(C[C@H](NC(=O)c3cnc4cc(N5CCC(F)(F)C5)ccn34)C2)C1 (stereo partly shown)             pIC50        > 8.30
12  NC(=O)c1cccnc1O[C@H]1CC2(C[C@H](NC(=O)c3csc(-c4ccccn4)n3)C2)C1 (stereo partly shown)             pIC50  5.60 to 6.60
